Species: Rattus norvegicus
procedure.summary: Open TG-GATES - Regimen: Single
Assay type: toxicity, organism-based, Sprague-Dawley
Design: regimen Single, gender Male, age 6 weeks
protocol.conditions: in vivo, po, 0 mg/kg, 3 h, tissue Liver, route gavage, dose level Control
Everything with LIVER lower than 9 g is N; everything else, including exactly 9 g, is Y.

Examples from the recorded data:
CN(C)CCN(Cc1cccs1)c1ccccn1
N
COC1=CC(=O)C[C@@H](C)[C@]12Oc1c(Cl)c(OC)cc(OC)c1C2=O
Y
CCOC(=O)CCC(=O)O[C@H]1[C@H](O[C@@H]2[C@@H](C)[C@H](O[C@H]3C[C@@](C)(OC)[C@@H](O)[C@H](C)O3)[C@@H](C)C(=O)O[C@H](CC)[C@@](C)(O)[C@H](O)[C@@H](C)C(=O)[C@H](C)C[C@@]2(C)O)O[C@H](C)C[C@@H]1N(C)C [ERYTHROMYCIN ETHYLSUCCINATE]
Y
CC(C)OC(=O)C(C)(C)Oc1ccc(C(=O)c2ccc(Cl)cc2)cc1 [FENOFIBRATE]
N
Cc1ccc(C)c(OCCCC(C)(C)C(=O)O)c1
Y

Determine whether this compound has LIVER no lower than 9 g: CC/C(=C(\c1ccccc1)c1ccc(OCCN(C)C)cc1)c1ccccc1
N

Then C[C@@H]1C[C@H]2[C@@H]3CCC4=CC(=O)C=C[C@]4(C)[C@@]3(F)[C@@H](O)C[C@]2(C)[C@@]1(O)C(=O)CO ?
Y

Then NNC(=O)c1ccncc1 ?
Y

Then COc1ccc2[nH]c([S+]([O-])Cc3ncc(C)c(OC)c3C)nc2c1 (configuration not stated) ?
Y

---

Species on record: Rattus norvegicus
procedure.summary: Open TG-GATES - Regimen: Daily Repeat
Format: toxicity, organism-based, Sprague-Dawley
Set-up: regimen Daily Repeat, gender Male, age 6 weeks
protocol.conditions: in vivo, po, 100 mg/kg, […], tissue Plasma, route gavage, dose level Low, time 28 day
Readings of TBIL for the listed compounds
Respond with the bare value in mg/dL.

COC1=CC(=O)C[C@@H](C)[C@]12Oc1c(Cl)c(OC)cc(OC)c1C2=O [GRISEOFULVIN]
0.1
CCOc1ccc(NC(=O)CC(C)O)cc1 (stereo not given) [BUCETIN]
0.06
NC(N)=Nc1nc(CSCCC(N)=NS(N)(=O)=O)cs1 [FAMOTIDINE]
0.1
CCOC(=O)CCC(=O)O[C@H]1[C@H](O[C@@H]2[C@@H](C)[C@H](O[C@H]3C[C@@](C)(OC)[C@@H](O)[C@H](C)O3)[C@@H](C)C(=O)O[C@H](CC)[C@@](C)(O)[C@H](O)[C@@H](C)C(=O)[C@H](C)C[C@@]2(C)O)O[C@H](C)C[C@@H]1N(C)C [ERYTHROMYCIN ETHYLSUCCINATE]
0.006

Now let's try a different one.
Which TBIL value belongs to COc1ccc2[nH]c([S+]([O-])Cc3ncc(C)c(OC)c3C)nc2c1 (stereo not given) [OMEPRAZOLE] ?
0.1

---

Organism: Rattus norvegicus
procedure.summary: Open TG-GATES - Regimen: Single
Type: toxicity, organism-based, Sprague-Dawley
Set-up: regimen Single, gender Male, age 6 weeks
protocol.conditions: in vivo, po, 10 mg/kg, 3 h, tissue Blood, route gavage, dose level Low
readout.label: APTT (s)
Respond with the bare value in s.

Which APTT value belongs to CN(C)CCN(Cc1cccs1)c1ccccn1 ?
20.7
